test: in vitro; type: in vitro ADME; details: human
OBSERVATION_TYPE: Papp at 1440 min
Answer by giving the amount and then stating its unit.

What measured Papp at 1440 min goes with NC[C@H]1O[C@H](O[C@H]2[C@H](O)[C@@H](O[C@H]3O[C@H](CO)[C@@H](O)[C@H](N)[C@H]3O)[C@H](N)C[C@@H]2N)[C@H](N)C[C@@H]1O [unformulated TOB, tobramycin] ?
0.81 ×10⁻⁶ cm/s

---

experiment: Tobramycin transport across CFBE41o− infected with PAO1 biofilm; assay type: in vitro ADME, human; details: human; nebulised; biofilm and epithelium monolayer; read-out: Papp of TOB
OBSERVATION_TYPE: Papp at 1440 min, 3.32 mg/mL (×10⁻⁶ cm/s)
Provide the reading as a plain figure in ×10⁻⁶ cm/s.

Given the entry NC[C@H]1O[C@H](O[C@H]2[C@H](O)[C@@H](O[C@H]3O[C@H](CO)[C@@H](O)[C@H](N)[C@H]3O)[C@H](N)C[C@@H]2N)[C@H](N)C[C@@H]1O , report its measured Papp at 1440 min, 3.32 mg/mL.
1.91
